The origin of these recorded values is the supplement of paper PMC6089552.

Recorded measurements of cell viability (log2), one per entry
System: A673/TR/shEF
PROTOCOL NOTES: cell viability (LOESS-normalised, relative to median of negative controls) (log2 ratio); higher = more viable cells (less compound effect), active = hit call of the paper (over 3 MAD below the median)
TEST CONTEXT: 2.5 µM; library screen: screen1; EWS-FLI1 expression: high (no doxycycline); treatment time: 72 h
Among all 3,200 compounds or so, about 300 (9.4%) showed activity. What follows is part of a selection rich in actives, with near analogues and random picks from the rest.

QUERY: Please report cell viability (log2) for the following compound: "COc1cc(CN2CCN(Cc3cccc(F)c3)CC2)cc2c1OCO2"
RESULT: 0.0312 (inactive)

QUERY: Name the recorded cell viability (log2) of the compound listed here: CC(C)[C@@H](C)C=C[C@@H](C)[C@H]1CC[C@H]2C3=CCC4CC(=O)CC[C@]4(C)[C@H]3CC[C@]12C (stereo partly specified)
RESULT: 0.126 (inactive)

QUERY: Consider the compound "O=C(O)/C=C(/CC(=O)O)C(=O)O" . State its measured cell viability (log2).
RESULT: 0.03 (inactive)

QUERY: For the compound "COc1cc(CN2CCN(Cc3cccc(Cl)c3)CC2)c([N+](=O)[O-])cc1OC" , give its reported cell viability (log2).
RESULT: 0.18 (inactive)

QUERY: Given CC(COc1ccccc1)NC(C)C(O)c1ccc(O)cc1 (stereo unspecified) , respond with its cell viability (log2).
RESULT: 0.178 (inactive)

QUERY: Consider the compound COC(=O)C[C@H]1C(C)(C)[C@H](O)[C@@H]2CC3=C4CC(O)O[C@@H](c5ccoc5)[C@]4(C)CCC3[C@@]1(C)C2=O (stereo partly specified) . State its measured cell viability (log2).
RESULT: 0.141 (inactive)

QUERY: Please look at this compound and report its cell viability (log2): "COc1ccc(C2C3=C(CC(C)(C)CC3=O)OC3=C2C(=O)CC(C)(C)C3)cc1[N+](=O)[O-]"
RESULT: 0.134 (inactive)

QUERY: Using known records, supply cell viability (log2) for CC(C)c1ccc2c(c1)CCC1C(C)(CN)CCCC21C (stereo unspecified)
RESULT: 0.122 (inactive)

QUERY: Consider the compound COc1ccc2c(c1)CCC1=CC(=O)CCC12C (stereo unspecified) and give its recorded cell viability (log2).
RESULT: 0.0987 (inactive)

QUERY: Give cell viability (log2) for the following compound: NCC1OC(OC2C(N)CC(N)C(OC3OC(CO)C(O)C(N)C3O)C2O)C(N)C(O)C1O (stereo unspecified)
RESULT: 0.164 (inactive)

---

# reported cell viability (log2); entries follow
Tested on: A673/TR/shEF
PROTOCOL NOTES: cell viability (LOESS-normalised, relative to median of negative controls) (log2 ratio); higher = more viable cells (less compound effect), active = hit call of the paper (over 3 MAD below the median)
TEST CONTEXT: 0.25 µM; library screen: screen1; EWS-FLI1 expression: low (doxycycline-induced shRNA knockdown); treatment time: 72 h
Screen size: about 3,200 compounds; about 300 (9.4%) showed activity. Only a selection was taken, and actives are over-represented in it overall.
Answer as a number with no unit attached.

Solved entries:
compound=Nc1ccc(C(=O)NCC(=O)O)cc1 reported=0.126
compound="CCC/C=C/C=C/C1CC(O)C(O)C(=O)C1C=O (configuration not stated)" reported=0.0579
compound=COCc1cc(O)c(O)c(O)c1-c1c(COC)cc(O)c(O)c1O reported=-0.00717
compound="CC(=O)OC1(C)CCC23CC1C(C)(C)[C@@H]2CC[C@H]3C (some centres not stated)" reported=0.0289
compound="CCCN(CCC)C(=O)C(CCC(=O)O)NC(=O)c1ccccc1 (configuration not stated)" reported=0.0317
compound=COc1cc(CN2CCN(Cc3cccc(OC)c3OC)CC2)c([N+](=O)[O-])cc1OC reported=0.0541

QUERY: Write down cell viability (log2) measured for item "O=C(O)c1c2ccccc2cc2ccccc12"
RESULT: 0.174

QUERY: Given the compound "COc1ccc(C(=O)C=Cc2ccccc2)cc1" , write its reported cell viability (log2).
RESULT: 0.0563
